Values from the supplement of paper PMC12764529

# TEST: folding stability dG unfold (combined trypsin and chymotrypsin); higher = more stable
Returns one of yes or no; yes when folding stability dG unfold is >= 1 kcal/mol.

# bool: folding stability dG unfold of SAGGTTTRTTVYFDDGKVYELTDPEEVEKTIKEKLGKNYKIVSEEEYTEPSPDGPPLPARRLKLKKKSAGGS [r16_408_JUSTAS] >= 1 kcal/mol no

Kindly determine if folding stability dG unfold recorded for SAGGSAGGSAGDLGLEDDTFILKATYPDGTPATIPLKKSEISKISKDNIKSIEFYPKSKLSAGGSAGGSAGG [r11_779_JUSTAS] is above or exactly 1 kcal/mol. no

Decide: folding stability dG unfold of SAGGSAGGSAGGPDVEKYPFKFPGKKFKIQRNPDDPDSYMISFPPGKTETFPLDDIKPLSAGGSAGGSAGGS [r10_556_TrROS] >= 1 kcal/mol? no

Given SAGGSAGGSAGGSKKIIIPVGNKPIEITLHPDEIPEIHPETNYISIYLPKTNDVLILPVGSAGGSAGGSAGG [r7_7_TrMRF] , state whether its folding stability dG unfold is at least 1 kcal/mol. no

hey, is folding stability dG unfold for this one >= 1 kcal/mol? SAGGSAGGMIKITITVPPGVSPEFVREKIAPLGVEVLSVEPLPDGTHRVTIEIPPEITKNPELLSAGGSAGG [r6_470_JUSTAS] yes

Textbook exercise: given the entry SMKKTYTFPVTLVPKDGKASLTVNWYAPDGTSLGTQTKSASAEGNTVTATVTVTVDAPPGAKIPSITVNASA [r9_292_JUSTAS] , state whether its folding stability dG unfold is greater than or equal to 1 kcal/mol. no

Confirm if folding stability dG unfold reported for the sequence SAGGVVYYATFTIYDPKRKLPNGELAYEETPIYKKFDPKEIEKFIKELKDKLKKEGRKIKAEITKVLSAGGS [r8_10_JUSTAS] is 1 kcal/mol or above. yes

# bool: folding stability dG unfold of SAGGSAGGSAGGGMILNITLIRPDGKPIVIEGPLDKPLYNPKKAGIENIPPEKLVKVEPRSAGGSAGGSAGG [r7_745_TrMRF] >= 1 kcal/mol no

Decide: is the reported value of folding stability dG unfold for SAGGSAGGSAIVEKIAKEFGFPAKIEVKRERNPGKWVVIPVRVRDPNGGKTWERKIHLPPNQSAGGSAGGSA [r18_313_TrROS] equal to or greater than 1 kcal/mol? no

Tell me whether folding stability dG unfold is at least 1 kcal/mol here: MRRFEFPETGLVVPVVPSPDGRYRVRIYRPGGELVLEVELPDLPIPEGSDAEIRIPLKDLPPDLVTFVEPES [r1_263_TrMRF] yes

Item SAGGSAGGSAKPVLEVEITVEVNGKLYKVRARVELEETPDGLVLKVEVELENGEKFEFTLKLSAGGSAGGSA [r18_54_TrROS_Hall] with folding stability dG unfold of 1 kcal/mol or above? yes

Test whether the sequence SAGGAPIPTVSTRTTPLPGGSSRTTTTTTYTFPETGTVYTATTTTTASPGGSPTTTATTTTTALAAASAGGS [r16_113_JUSTAS] records folding stability dG unfold of 1 kcal/mol or higher. no

Exam item: decide whether the reported folding stability dG unfold for SAGGMKIEITVSPVGDVVNVEVKIELPEGPVEVVDETPAEVAPDGSIHIKLKLKLPNGPWLEMEIEVSAGGS [r8_449_JUSTAS] is at least 1 kcal/mol. yes

Record SAGGSAGGSAGSPAAERIAKYMEKQGGDNIDIEPVGPRPGYVRIKMKNNRPITIPLKEGDSAGGSAGGSAGG [r11_765_TrROS] ; criterion: folding stability dG unfold no lower than 1 kcal/mol. Met? no
